Test system: CCRIS mutagenicity, Ames/micronucleus/aberration tests
test: CCRIS mutagenicity studies
stated-conditions: Test System: AMES SALMONELLA TYPHIMURIUM; Strain/Indicator: UTH8414; Metabolic Activation: NONE; Method: STANDARD PLATE
The source made the active and inactive calls. How the calls were made is not given here.
// allowed return values: yes (1) (active), no (0) (inactive)

Known results for compounds:
Query block: Per the assay record, what outcome was assigned to ClC(Cl)=C(Cl)Cl ?
Result block: no (0)

Query block: Would you mind doing Cc1ccccc1C as well?
Result block: no (0)

Query block: Similarly, C=O ?
Result block: no (0)

Let us examine a further case.
Query block: Hey, what did the test say about CCS(=O)(=O)CCn1c([N+](=O)[O-])cnc1C ?
Result block: yes (1)
